The following compounds are listed with their measured EC50 values.
Test system: SARS-CoV-2
Test: Antiviral activity against SARS-CoV-2 infected in African green monkey VeroE6 cells expressing TMPRSS2
Assay type: functional, organism-based
Details: Severe acute respiratory syndrome coronavirus 2, Vero C1008
Metric name: EC50 (nM)

| Chemical structure | Measured |
| --- | --- |
| Cn1cc2cc(Nc3nc(=O)n(Cc4cc(Cl)ccn4)c(=O)n3Cc3cc(F)c(F)cc3F)c(Cl)cc2n1 | 1520 |
| Cc1cncc(-n2c(=O)nc(Nc3cc4cn(C)nc4cc3Cl)n(Cc3cc(F)c(F)c(F)c3)c2=O)c1 | 177 |
| Cn1cnc(Cn2c(=O)nc(Nc3cc4cn(C)nc4cc3Cl)n(Cc3cc(Cl)c(F)c(Cl)c3)c2=O)n1 | 750 |
| CCNC(=O)Cn1c(=O)nc(Nc2cc3cn(C)nc3cc2Cl)n(Cc2cc(F)c(F)c(F)c2)c1=O | 11500 |
| CCn1cc2cc(Nc3nc(=O)n(Cc4ncn(C)n4)c(=O)n3Cc3cc(F)c(F)cc3F)c(Cl)cc2n1 | 533 |
| Cn1cc2cc(Nc3nc(=O)n(-c4cncc5c4COC5)c(=O)n3Cc3cc(Cl)c(F)cc3F)c(Cl)cc2n1 | 680 |
| Cc1cnc(Cn2c(=O)nc(Nc3cc4cn(C)nc4cc3Cl)n(Cc3cc(F)c(F)cc3F)c2=O)nc1 | 5850 |
| Cn1cc2cc(Nc3nc(=O)n(Cc4cc5ccsc5[nH]c4=O)c(=O)n3Cc3cc(F)c(F)c(F)c3)c(Cl)cc2n1 | 321 |

* * *

The following compounds are listed with their measured pIC50 values.
Molecular target: Replicase polyprotein 1ab (Severe acute respiratory syndrome coronavirus 2, UniProt P0DTD1)
Test: Inhibition of recombinant SARS-CoV-2 main protease usingDABCYLKTSAVLQSGFRKME(EDANS)-NH2 fluorogenic peptide substrate by FRET assay
pIC50: −log10 of the molar value.

| Compound | pIC50 |
| --- | --- |
| Cn1cnc(Cn2c(=O)nc(Nc3cc4cn(C)nc4cc3Cl)n(Cc3cc(F)c(F)c(F)c3F)c2=O)n1 | 8.00 |
| Cn1cc2cc(Nc3nc(=O)n(Cc4cc5ccsc5[nH]c4=O)c(=O)n3Cc3cc(F)c(F)c(F)c3)c(Cl)cc2n1 | 8.40 |
| Cn1cnc(Cn2c(=O)nc(Nc3cc4cn(CC(F)F)nc4cc3Cl)n(Cc3cc(F)c(F)cc3F)c2=O)n1 | 8.05 |
| Cn1cnc(Cn2c(=O)nc(NC3=CC4CCOC4C=C3Cl)n(Cc3cc(F)c(F)c(F)c3)c2=O)n1 (configuration not stated) | 7.82 |
| Cn1cnc(Cn2c(=O)nc(Nc3cc4cn(C)nc4cc3Cl)n(Cc3cc(Cl)c(F)c(Cl)c3)c2=O)n1 | 8.30 |
| Cc1cncc(-n2c(=O)nc(Nc3cc4cn(C)nc4cc3Cl)n(Cc3cc(C#N)c(F)cc3C)c2=O)c1 | 8.70 |
| Cn1cnc(Cn2c(=O)nc(Nc3cc4cn(C)nc4cc3Cl)n(Cc3cc(F)c(F)c(F)c3)c2=O)c1 | 8.22 |
